system: PC-3; experiment: Antiproliferative activity against human PC3 cells after 96 hrs by MTT assay; type: functional; settings: PC-3, 96 h
measure: GI50

Use the examples below as a reference point.
smiles-text | GI50
Cn1c2c(c3ccccc31)C(=O)CCNC2=O | > 100 µM
O=C1CCNC(=O)c2[nH]ccc21 | > 100 µM
Cn1c2c(c3ccccc31)/C(=N/OCC1CCCCC1)CCNC2=O | 29.1 µM

Now look at this one.
Give the measured GI50 of O=C1NCC/C(=N\O)c2c1[nH]c1ccccc21 .
> 100 µM

The origin of these recorded values is ChEMBL document CHEMBL2086357.
